# key: entry, value: protein stability index
B1: LOXL2 (parent)
chain: FSPDGPSRFRKAYKPEQPLVRLRG

# Variants of: B1
# ASSAY_PROTOCOL: protein stability index of a GFP-peptide fusion (GPS, HEK-293T) (PSI 1-6); higher = more stable;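 note: lentivirally expressed fusions sorted by FACS into six bins by GFP to DsRed ratio, PSI derived from sequencing read proportions per bin multiplied by bin number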
# CONDITION_NOTES: c terminus: a fixed tail appended

R21I | 2.57

Please look at this variant and report its protein stability index: `A12L` 2.35

Supply recorded protein stability index for `K14D` here. 1.86

Look up and report measured protein stability index for this entry: `F1N` 3.98

Answer with the recorded protein stability index for the variant listed here: `L19D` 2.46
